# Test system: human colorectal cancer cell line DLD-1
# PROTOCOL_SUMMARY: Cell viability by MTT assay, DLD-1
# Type: cell-based
# CONDITION_DETAILS: DLD-1 colorectal cancer cells, 24 hours with drug
ASSAY_ENDPOINT: pIC50
Field pIC50 (float): negative decimal logarithm of the concentration in molar.

Problem: Please give the measured pIC50 for this compound: Oc1ccc(/C=C/c2cc(O)cc(O)c2O)cc1 [TG1, 2,3,5, 4′-tetrahydroxy-trans-stilbene]
Solution: 7.25
